Data credit: PubChem BioAssay (NCI)

system: UACC-62 melanoma; experiment: NCI tumour cell line growth inhibition, 48 h
Please provide measured TGI for the entries that follow.

Please report the recorded TGI for O=C1C(Cl)N(c2ccccc2)C1c1c[nH]c2ccccc12 (stereo not drawn) .
> 100 µM

For each of the molecules below, note its TGI.
1. CCOC(=O)CCCO
2. COc1ccc2c(c1)C(=O)c1ccccc1C2

1: > 100 µM; 2: > 100 µM

---

Please provide measured TGI for the entries that follow.
tested on: SF-539 CNS; assay: NCI tumour cell line growth inhibition, 48 h

These recorded examples may help you get a feel for the data.
Please report the recorded TGI for `C/C(=N\NC(N)=S)c1ccc(C)cc1C` .
> 100 µM

Please report the recorded TGI for `CC(=O)CC(=O)c1cc2c(=O)oc(C)cc2oc1=O` .
> 37.5 µM

Please report the recorded TGI for `CCOC(=O)CCCO` .
> 100 µM

For each of the molecules below, note its TGI.
1. Cc1nc2ccc([N+](=O)[O-])cc2c(=O)n1C(=S)Nc1cccc(Cl)c1
2. O=c1[nH]c(=O)n(C2CC(O)C(CO)O2)cc1C#Cc1c(F)c(F)c(F)c(F)c1F (stereo not given)

43.1 µM
> 100 µM

---

test system: ACHN renal; assay: NCI tumour cell line growth inhibition, 48 h
MEASUREMENT LABEL: TGI (µM)
One number for each entry, in µM.

ACHN renal / TGI / `CCOc1ccc(N=C/C=C(\Cl)c2ccc3ccccc3c2)cc1` : value?
32.7

For each of the compounds below, note its TGI.
1. O=C1/C(=C/c2ccccc2)CN(C(=O)Oc2ccc(Cl)cc2)C/C1=C\c1ccccc1
2. CN(C)c1ccc2c(c1)oc(=O)c1ccccc12

[8.86, 44.6]

For each of the compounds below, note its TGI.
1. Cc1cc(O)cc(O)c1N=Nc1ccc([N+](=O)[O-])cc1
2. Cc1cc(C)c2c(n1)S(=O)(=O)N(CCCN1CCN(c3cccc(C(F)(F)F)c3)CC1)/C(=C(\O)c1ccc(Cl)cc1)C2=O
3. CCN1CCN(c2nc(NCCNc3ccnc4cc(Cl)ccc34)c3ccccc3n2)CC1

1: 94.9; 2: 13.8; 3: 3.89

For each of the compounds below, note its TGI.
1. C=CCCCC12CCCc3cccc(c31)NC2=O (stereo not given)
2. CN1CCN(Cc2ccc(NC(=O)c3cncc(C#Cc4cnc(N)c5ccccc45)c3)cc2C(F)(F)F)CC1
3. CC1=C2[C@@H](CC1)[C@]1(C)O[C@@](C(C)C)(C[C@H]1OC(=O)[C@H](C)O)[C@H]2OC(=O)/C=C/c1ccccc1

1: 86.4; 2: 0.523; 3: 13

---

system: OVCAR-3 ovarian; test: NCI tumour cell line growth inhibition, 48 h
Please provide measured TGI for the entries that follow.

These recorded examples may help you get a feel for the data.
Please report the recorded TGI for `CCOC(=O)c1c(N)n(-c2ccccc2)c(=S)n(-c2ccccc2)c1=O` .
> 100 µM

Please report the recorded TGI for `Cc1ccc(C(=O)Nc2ccc(CP(=O)(O)O)cc2)cc1NC(=O)c1cccc(NC(=O)Nc2cccc(C(=O)Nc3cc(C(=O)Nc4ccc(CP(=O)(O)O)cc4)ccc3C)c2)c1` .
> 100 µM

Please report the recorded TGI for `CC(C)CCNC(=O)c1ccc(CNC(=O)/C=C/c2ccc(OCc3ccccc3)cc2)cc1` .
> 100 µM

Please report the recorded TGI for `Cc1cc(C)nc(NS(=O)(=O)c2ccc(NC(=O)c3cccc4c(=O)c5ccccc5[nH]c34)cc2)n1` .
37.6 µM

Let us move to another entry and its TGI.
Please report the recorded TGI for `O=C1CSC(N2CCN(c3cccc(Cl)c3)CC2)=N1` .
> 100 µM
